# Subject of test: T1, human GM-CSFRα, full length on cells (human, UniProt P15509 23-400)
# T1 sequence: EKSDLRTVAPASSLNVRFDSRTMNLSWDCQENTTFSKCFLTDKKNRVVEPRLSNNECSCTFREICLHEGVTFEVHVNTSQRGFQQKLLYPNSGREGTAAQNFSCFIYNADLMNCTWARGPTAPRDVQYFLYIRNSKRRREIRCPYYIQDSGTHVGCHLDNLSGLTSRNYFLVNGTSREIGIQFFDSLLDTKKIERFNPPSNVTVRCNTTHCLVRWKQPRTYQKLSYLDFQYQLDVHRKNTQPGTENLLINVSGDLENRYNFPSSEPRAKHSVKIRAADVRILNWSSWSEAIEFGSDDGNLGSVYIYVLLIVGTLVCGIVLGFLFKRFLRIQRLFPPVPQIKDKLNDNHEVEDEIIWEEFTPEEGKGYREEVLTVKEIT
# Procedure text: cell-based or functional assay

Binder	IC50, TF-1 cell proliferation
E35-scFv LY32A (scFv, V domains shown) VH: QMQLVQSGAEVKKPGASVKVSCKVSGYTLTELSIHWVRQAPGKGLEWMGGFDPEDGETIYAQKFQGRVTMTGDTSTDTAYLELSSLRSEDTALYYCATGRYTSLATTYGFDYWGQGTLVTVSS VL: EIVMTQSPATLSLSPGERATLSCRASQSVSSALAWYQQKPGQAPRLLIYGASSRATGIPDRFSGSGSGTDFTLTISRLEPEDFAVYYCQQYDNWPYTFGQGTKLEIK	1.35 µg/mL
E35-scFv LN93K (scFv, V domains shown) VH: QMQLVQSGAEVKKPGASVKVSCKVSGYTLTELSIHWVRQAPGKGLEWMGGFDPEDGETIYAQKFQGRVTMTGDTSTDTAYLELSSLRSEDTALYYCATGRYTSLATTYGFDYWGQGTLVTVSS VL: EIVMTQSPATLSLSPGERATLSCRASQSVSSYLAWYQQKPGQAPRLLIYGASSRATGIPDRFSGSGSGTDFTLTISRLEPEDFAVYYCQQYDKWPYTFGQGTKLEIK	0.78 µg/mL
E35-scFv LN93G (scFv, V domains shown) VH: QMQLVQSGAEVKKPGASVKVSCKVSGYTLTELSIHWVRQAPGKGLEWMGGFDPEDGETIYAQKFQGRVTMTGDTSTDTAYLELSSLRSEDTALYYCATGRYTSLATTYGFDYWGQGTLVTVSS VL: EIVMTQSPATLSLSPGERATLSCRASQSVSSYLAWYQQKPGQAPRLLIYGASSRATGIPDRFSGSGSGTDFTLTISRLEPEDFAVYYCQQYDGWPYTFGQGTKLEIK	0.205 µg/mL
E35-scFv LY32C (scFv, V domains shown) VH: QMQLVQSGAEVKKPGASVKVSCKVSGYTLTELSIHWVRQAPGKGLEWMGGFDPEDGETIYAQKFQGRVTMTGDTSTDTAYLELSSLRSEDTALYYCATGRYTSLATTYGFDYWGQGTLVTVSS VL: EIVMTQSPATLSLSPGERATLSCRASQSVSSCLAWYQQKPGQAPRLLIYGASSRATGIPDRFSGSGSGTDFTLTISRLEPEDFAVYYCQQYDNWPYTFGQGTKLEIK	1.9 µg/mL
E35-scFv LS28I (scFv, V domains shown) VH: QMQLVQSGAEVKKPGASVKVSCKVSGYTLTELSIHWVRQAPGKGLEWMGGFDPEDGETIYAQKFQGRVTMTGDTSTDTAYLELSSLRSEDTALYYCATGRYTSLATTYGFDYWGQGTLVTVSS VL: EIVMTQSPATLSLSPGERATLSCRASQIVSSYLAWYQQKPGQAPRLLIYGASSRATGIPDRFSGSGSGTDFTLTISRLEPEDFAVYYCQQYDNWPYTFGQGTKLEIK	0.091 µg/mL
